details: 284.15 K; 101.33 kPa; Liquid; Pulse-echo method
RECORDED METRIC: speed of sound (m/s)

query: What value of measured speed of sound is listed for CCCC(=O)[O-].C[NH2+]CCO [N-methyl-2-hydroxyethylammonium butanoate] ?
result: 1661.2

query: I would be grateful if you could share the reported speed of sound for CC(C)C(=O)[O-].C[NH2+]CCO [2-hydroxy-N-methylethanaminium isobutyrate] .
result: 1651.7

query: What does the data say about its speed of sound? Entry: C[NH2+]CCO.O=C[O-] [2-hydroxy-N-methylethanaminium formate]
result: 1842.8

query: Entry CCCCC(=O)[O-].C[NH2+]CCO [2-hydroxy-N-methylethanaminium pentanoate] : reported speed of sound = ?
result: 1594.8

query: Using the record for CCC(=O)[O-].C[NH2+]CCO [2-hydroxy-N-methylethanaminium propionate] , report its speed of sound.
result: 1732.6

* * *

conditions: 332.91 K; 101.33 kPa; Liquid; Pulse-echo method
RECORDED METRIC: speed of sound (m/s)

query: Consider the molecule shown here: CCCCC(=O)[O-].C[NH2+]CCO [2-hydroxy-N-methylethanaminium pentanoate] What is its recorded speed of sound?
result: 1441.6

query: What speed of sound value was documented for this molecule, CCC(=O)[O-].C[NH2+]CCO [2-hydroxy-N-methylethanaminium propionate] ?
result: 1586.5

query: For the molecule shown here, C[NH2+]CCO.O=C[O-] [2-hydroxy-N-methylethanaminium formate] , give the reported speed of sound.
result: 1748

query: # get_value(readout='speed of sound', item= CCCC(=O)[O-].C[NH2+]CCO [N-methyl-2-hydroxyethylammonium butanoate] )
result: 1505.6

query: Requested read-out: speed of sound. Entry: CC(C)C(=O)[O-].C[NH2+]CCO [2-hydroxy-N-methylethanaminium isobutyrate]
result: 1512.7

* * *

settings: 293.65 K; 101.33 kPa; Liquid; Vibrating tube method
RECORDED METRIC: mass density (kg/m3)

query: Dear colleague, I am looking for the recorded mass density of the following compound: CC(C)C(=O)[O-].C[NH2+]CCO [2-hydroxy-N-methylethanaminium isobutyrate]
result: 1046.21

query: mass density lookup needed for CC(=O)[O-].C[NH2+]CCO [N-methyl-2-hydroxyethylammonium acetate] , thanks.
result: 1103.46

query: What mass density value was documented for this compound, CCCCC(=O)[O-].C[NH2+]CCO [2-hydroxy-N-methylethanaminium pentanoate] ?
result: 1019.27

query: mass density for CCC(=O)[O-].C[NH2+]CCO [2-hydroxy-N-methylethanaminium propionate] ?
result: 1074.17

query: Please look up its mass density: C[NH2+]CCO.O=C[O-] [2-hydroxy-N-methylethanaminium formate]
result: 1130.76

query: For CCCC(=O)[O-].C[NH2+]CCO [N-methyl-2-hydroxyethylammonium butanoate] , what is its reported mass density?
result: 1042.3

* * *

conditions: 326.41 K; 101.33 kPa; Liquid; Vibrating tube method
RECORDED METRIC: mass density (kg/m3)

query: Which measured mass density value corresponds to CCCC(=O)[O-].C[NH2+]CCO [N-methyl-2-hydroxyethylammonium butanoate] ?
result: 1019.99

query: Please report the recorded mass density for CC(=O)[O-].C[NH2+]CCO [N-methyl-2-hydroxyethylammonium acetate] .
result: 1083.59

query: mass density for CC(C)C(=O)[O-].C[NH2+]CCO [2-hydroxy-N-methylethanaminium isobutyrate] ?
result: 1024.85

query: Return reported mass density; argument: C[NH2+]CCO.O=C[O-] [2-hydroxy-N-methylethanaminium formate]
result: 1112.55

query: Consider the compound CCCCC(=O)[O-].C[NH2+]CCO [2-hydroxy-N-methylethanaminium pentanoate] and give its measured mass density.
result: 996.977

query: Look up mass density: CCC(=O)[O-].C[NH2+]CCO [2-hydroxy-N-methylethanaminium propionate]
result: 1052.62

* * *

settings: 279.4 K; 101.33 kPa; Liquid; Pulse-echo method
RECORDED METRIC: speed of sound (m/s)

query: Endpoint output: speed of sound of CC(C)C(=O)[O-].C[NH2+]CCO [2-hydroxy-N-methylethanaminium isobutyrate] . Value?
result: 1666.2

query: Can you look up the measured speed of sound of C[NH2+]CCO.O=C[O-] [2-hydroxy-N-methylethanaminium formate] for me?
result: 1852.2

query: Please report the recorded speed of sound for CCCC(=O)[O-].C[NH2+]CCO [N-methyl-2-hydroxyethylammonium butanoate] .
result: 1678.7

query: Please report the recorded speed of sound for CCCCC(=O)[O-].C[NH2+]CCO [2-hydroxy-N-methylethanaminium pentanoate] .
result: 1611.9

query: Which speed of sound value is on record for CCC(=O)[O-].C[NH2+]CCO [2-hydroxy-N-methylethanaminium propionate] ?
result: 1748.1

* * *

conditions: 298.15 K; 101.33 kPa; Liquid
RECORDED METRIC: viscosity (mPa·s)

query: Please look up its viscosity: CCCC(=O)[O-].C[NH2+]CCO [N-methyl-2-hydroxyethylammonium butanoate]
result: 298.95

query: Look at this compound and give its reported viscosity. CCC(=O)[O-].C[NH2+]CCO [2-hydroxy-N-methylethanaminium propionate]
result: 215.06

A = CC(C)C(=O)[O-].C[NH2+]CCO [2-hydroxy-N-methylethanaminium isobutyrate]
B = C[NH2+]CCO.O=C[O-] [2-hydroxy-N-methylethanaminium formate]
C = CC(=O)[O-].C[NH2+]CCO [N-methyl-2-hydroxyethylammonium acetate]
D = CCCCC(=O)[O-].C[NH2+]CCO [2-hydroxy-N-methylethanaminium pentanoate]
query: Rank order required: viscosity, descending. Returns: the labels arranged in the requested order.
result: D, A, C, B
(D: 234.44 mPa·s, A: 163.08 mPa·s, C: 106.06 mPa·s, B: 20.27 mPa·s)

* * *

settings: 309.4 K; 101.33 kPa; Liquid; Pulse-echo method
RECORDED METRIC: speed of sound (m/s)

query: Record request: speed of sound value, item CCC(=O)[O-].C[NH2+]CCO [2-hydroxy-N-methylethanaminium propionate]
result: 1656.8

query: Record request: speed of sound value, item C[NH2+]CCO.O=C[O-] [2-hydroxy-N-methylethanaminium formate]
result: 1793.4

query: Which value of speed of sound has been reported for CCCCC(=O)[O-].C[NH2+]CCO [2-hydroxy-N-methylethanaminium pentanoate] in the records?
result: 1513.8

query: Please give the measured speed of sound for this compound: CCCC(=O)[O-].C[NH2+]CCO [N-methyl-2-hydroxyethylammonium butanoate]
result: 1579.2

query: Give its speed of sound value. Item: CC(C)C(=O)[O-].C[NH2+]CCO [2-hydroxy-N-methylethanaminium isobutyrate]
result: 1579.6

* * *

conditions: 296.4 K; 101.33 kPa; Liquid; Vibrating tube method
RECORDED METRIC: mass density (kg/m3)

query: Recorded mass density for CC(=O)[O-].C[NH2+]CCO [N-methyl-2-hydroxyethylammonium acetate] , please?
result: 1101.85

query: Please look up its mass density: CCC(=O)[O-].C[NH2+]CCO [2-hydroxy-N-methylethanaminium propionate]
result: 1072.38

query: What value of mass density has been recorded for this entry: CC(C)C(=O)[O-].C[NH2+]CCO [2-hydroxy-N-methylethanaminium isobutyrate]
result: 1044.48

query: Find the recorded mass density belonging to CCCCC(=O)[O-].C[NH2+]CCO [2-hydroxy-N-methylethanaminium pentanoate] and report it.
result: 1017.4

query: Value lookup for mass density; key = C[NH2+]CCO.O=C[O-] [2-hydroxy-N-methylethanaminium formate]
result: 1129.23

query: So what's the measured mass density for this one? CCCC(=O)[O-].C[NH2+]CCO [N-methyl-2-hydroxyethylammonium butanoate]
result: 1040.44

* * *

details: 289.9 K; 101.33 kPa; Liquid; Vibrating tube method
RECORDED METRIC: mass density (kg/m3)

query: I have this compound here, CCC(=O)[O-].C[NH2+]CCO [2-hydroxy-N-methylethanaminium propionate] , and I need its recorded mass density.
result: 1076.64

query: What value of mass density has been recorded for this entry: CC(=O)[O-].C[NH2+]CCO [N-methyl-2-hydroxyethylammonium acetate]
result: 1105.73

query: Item under review: CC(C)C(=O)[O-].C[NH2+]CCO [2-hydroxy-N-methylethanaminium isobutyrate] . Reported mass density?
result: 1048.56

query: Would you mind telling me what mass density value was observed for CCCC(=O)[O-].C[NH2+]CCO [N-methyl-2-hydroxyethylammonium butanoate] ?
result: 1044.83

query: Please look up its mass density: C[NH2+]CCO.O=C[O-] [2-hydroxy-N-methylethanaminium formate]
result: 1132.86

query: Using the record for CCCCC(=O)[O-].C[NH2+]CCO [2-hydroxy-N-methylethanaminium pentanoate] , report its mass density.
result: 1021.81

* * *

conditions: 291.9 K; 101.33 kPa; Liquid; Pulse-echo method
RECORDED METRIC: speed of sound (m/s)

query: Give its speed of sound value. Item: C[NH2+]CCO.O=C[O-] [2-hydroxy-N-methylethanaminium formate]
result: 1827.5

query: Given CCCC(=O)[O-].C[NH2+]CCO [N-methyl-2-hydroxyethylammonium butanoate] , state its recorded speed of sound.
result: 1634.7

query: Any idea what its speed of sound is? The compound is CC(C)C(=O)[O-].C[NH2+]CCO [2-hydroxy-N-methylethanaminium isobutyrate]
result: 1629.1

query: Item CCC(=O)[O-].C[NH2+]CCO [2-hydroxy-N-methylethanaminium propionate] has what recorded speed of sound?
result: 1708.6

query: Query (compound): CCCCC(=O)[O-].C[NH2+]CCO [2-hydroxy-N-methylethanaminium pentanoate] ; field requested: speed of sound
result: 1568.8
